tested.target: full-length recombinant KDM5A (Homo sapiens, UniProt P29375)
Sequence (P29375 whole entry): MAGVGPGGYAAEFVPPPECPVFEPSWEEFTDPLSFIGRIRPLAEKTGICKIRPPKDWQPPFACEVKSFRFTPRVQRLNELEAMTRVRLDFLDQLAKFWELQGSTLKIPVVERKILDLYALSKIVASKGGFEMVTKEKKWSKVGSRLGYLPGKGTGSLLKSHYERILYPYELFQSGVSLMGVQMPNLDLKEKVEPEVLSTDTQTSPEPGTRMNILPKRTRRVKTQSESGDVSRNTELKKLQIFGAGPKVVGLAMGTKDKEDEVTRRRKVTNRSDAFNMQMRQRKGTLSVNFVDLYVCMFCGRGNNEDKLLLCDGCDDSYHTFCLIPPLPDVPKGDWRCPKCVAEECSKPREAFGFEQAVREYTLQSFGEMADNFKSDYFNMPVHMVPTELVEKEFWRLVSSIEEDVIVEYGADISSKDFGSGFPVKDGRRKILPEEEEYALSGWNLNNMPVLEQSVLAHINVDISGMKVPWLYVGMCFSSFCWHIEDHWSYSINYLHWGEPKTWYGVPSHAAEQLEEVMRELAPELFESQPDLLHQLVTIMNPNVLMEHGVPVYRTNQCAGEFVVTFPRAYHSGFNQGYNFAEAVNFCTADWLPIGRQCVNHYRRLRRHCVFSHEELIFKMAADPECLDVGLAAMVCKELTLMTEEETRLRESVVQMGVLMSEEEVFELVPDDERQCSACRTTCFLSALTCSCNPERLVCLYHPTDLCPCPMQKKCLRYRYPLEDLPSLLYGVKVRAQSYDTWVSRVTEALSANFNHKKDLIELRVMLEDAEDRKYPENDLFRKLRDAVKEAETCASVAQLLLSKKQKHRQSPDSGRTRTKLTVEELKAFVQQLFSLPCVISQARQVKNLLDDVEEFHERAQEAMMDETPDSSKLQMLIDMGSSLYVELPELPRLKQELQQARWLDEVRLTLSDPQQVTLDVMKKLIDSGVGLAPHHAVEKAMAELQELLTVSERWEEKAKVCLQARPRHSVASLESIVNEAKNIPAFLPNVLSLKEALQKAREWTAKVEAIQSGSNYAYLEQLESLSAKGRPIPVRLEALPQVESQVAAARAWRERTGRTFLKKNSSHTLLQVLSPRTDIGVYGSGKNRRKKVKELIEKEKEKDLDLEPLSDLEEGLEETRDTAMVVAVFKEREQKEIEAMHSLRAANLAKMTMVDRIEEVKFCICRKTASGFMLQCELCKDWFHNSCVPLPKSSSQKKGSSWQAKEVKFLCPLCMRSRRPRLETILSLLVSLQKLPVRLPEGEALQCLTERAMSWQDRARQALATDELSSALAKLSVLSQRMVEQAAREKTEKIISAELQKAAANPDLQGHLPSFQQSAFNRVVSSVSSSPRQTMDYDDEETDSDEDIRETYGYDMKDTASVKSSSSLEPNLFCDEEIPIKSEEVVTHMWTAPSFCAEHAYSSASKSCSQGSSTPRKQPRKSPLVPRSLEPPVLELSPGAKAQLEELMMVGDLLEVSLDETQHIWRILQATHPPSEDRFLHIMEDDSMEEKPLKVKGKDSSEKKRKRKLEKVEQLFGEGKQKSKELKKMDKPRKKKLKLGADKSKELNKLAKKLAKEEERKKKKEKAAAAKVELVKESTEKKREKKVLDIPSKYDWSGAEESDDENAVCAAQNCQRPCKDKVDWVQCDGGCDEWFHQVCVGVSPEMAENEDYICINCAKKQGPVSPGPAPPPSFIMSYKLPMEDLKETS
experiment.summary: KDM5A enzyme kinetic assay
Format: biochemical
cond: read-out: (R)-2HG IC50, fourfold 2OG concentration relative to 2OG Km
observation.type: IC50 (µM)
# unit: µM | format: bare number

Name the recorded IC50 for O=C(O)CC[C@@H](O)C(=O)O [(R)-2HG, (R)-2-hydroxyglutarate] .
930

----------
tested.target: full-length recombinant KDM5D (Homo sapiens)
Sequence (Q9BY66 whole entry): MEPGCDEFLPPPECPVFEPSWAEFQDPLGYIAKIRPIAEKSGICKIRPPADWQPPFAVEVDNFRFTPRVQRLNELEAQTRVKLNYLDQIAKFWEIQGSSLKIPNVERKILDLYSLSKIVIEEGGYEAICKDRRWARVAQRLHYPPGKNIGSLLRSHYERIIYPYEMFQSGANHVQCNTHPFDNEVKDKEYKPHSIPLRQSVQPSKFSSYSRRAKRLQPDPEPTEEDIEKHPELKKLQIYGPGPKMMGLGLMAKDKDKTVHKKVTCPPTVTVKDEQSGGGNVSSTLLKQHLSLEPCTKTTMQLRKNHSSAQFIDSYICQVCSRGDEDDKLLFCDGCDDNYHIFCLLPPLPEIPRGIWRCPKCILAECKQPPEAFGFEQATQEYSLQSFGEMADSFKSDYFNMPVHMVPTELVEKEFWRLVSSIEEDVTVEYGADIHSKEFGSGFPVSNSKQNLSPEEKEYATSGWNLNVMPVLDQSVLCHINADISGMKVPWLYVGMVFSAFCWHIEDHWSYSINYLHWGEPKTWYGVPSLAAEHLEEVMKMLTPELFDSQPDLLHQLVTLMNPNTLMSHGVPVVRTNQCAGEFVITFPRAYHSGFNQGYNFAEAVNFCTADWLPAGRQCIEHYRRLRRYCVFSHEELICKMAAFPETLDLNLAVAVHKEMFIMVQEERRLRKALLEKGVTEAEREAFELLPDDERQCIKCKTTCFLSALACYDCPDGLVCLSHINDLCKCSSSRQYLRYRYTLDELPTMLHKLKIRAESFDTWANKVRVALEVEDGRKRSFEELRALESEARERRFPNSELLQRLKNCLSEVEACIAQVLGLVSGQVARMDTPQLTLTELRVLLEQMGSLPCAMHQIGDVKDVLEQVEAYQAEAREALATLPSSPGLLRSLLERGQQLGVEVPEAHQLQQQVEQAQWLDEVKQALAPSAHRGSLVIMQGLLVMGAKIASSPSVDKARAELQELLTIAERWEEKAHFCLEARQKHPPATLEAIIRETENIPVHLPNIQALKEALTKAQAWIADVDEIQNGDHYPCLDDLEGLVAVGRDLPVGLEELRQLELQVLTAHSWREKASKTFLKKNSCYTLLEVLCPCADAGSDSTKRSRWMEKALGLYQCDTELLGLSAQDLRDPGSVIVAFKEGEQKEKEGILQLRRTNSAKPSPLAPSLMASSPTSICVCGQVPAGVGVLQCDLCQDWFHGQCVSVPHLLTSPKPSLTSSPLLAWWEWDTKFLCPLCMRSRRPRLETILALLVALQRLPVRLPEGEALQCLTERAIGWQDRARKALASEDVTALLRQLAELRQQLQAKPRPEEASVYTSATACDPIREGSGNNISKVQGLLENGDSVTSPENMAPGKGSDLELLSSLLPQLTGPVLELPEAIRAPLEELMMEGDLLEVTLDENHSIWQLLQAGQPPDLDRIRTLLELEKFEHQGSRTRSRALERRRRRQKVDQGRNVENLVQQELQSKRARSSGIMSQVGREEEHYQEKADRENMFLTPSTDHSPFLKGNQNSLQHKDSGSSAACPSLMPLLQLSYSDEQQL
cond: read-out: (R)-2HG IC50, fourfold 2OG concentration relative to 2OG Km
observation.type: pIC50
Lab note — pIC50 values are minus log10 of concentrations in M.

Please tell me: pIC50 of O=C(O)CC[C@@H](O)C(=O)O [(R)-2HG, (R)-2-hydroxyglutarate] , system full-length recombinant KDM5D (Homo sapiens)?
3.10
